system: MEWO A1-expressing, TSA primed, caspase-Glo luminescence, 3 h; assay: caspase activation in TSA-primed A1-expressing MEWO, dose response, orthogonal assay for A1 inhibitor project, cell-based, Trichostatin A primed, luminescence, set 2 (AID 504356)
Active and inactive are the calls of the source.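 How the source made its calls: active means curve reaching 10% of positive control caspase signal at or below the top valid tested dose; inactive means opposite-direction activity, or no crossing across tested range.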
# AC10 annotations

1) Cn1c(=O)c([N+](=O)[O-])c(-n2cnc3ccccc32)c2ccccc21 ... > 30 µM (inactive)

In: Report AC10 for O=[N+]([O-])c1cnc2ccccc2c1Sc1ccccc1 please.
Out: > 30 µM (inactive)

In: Report AC10 for Cc1ccc(Sc2c([N+](=O)[O-])cnc3ccccc23)cc1 please.
Out: 24.9 µM

In: Report AC10 for Cc1ccc(Sc2c([N+](=O)[O-])c(=O)n(C)c3ccccc23)cc1 please.
Out: > 30 µM (inactive)
